# test: Cytotoxicity against human MCF10A cells assessed as dead cells at 1 uM after 24 hrs
# Format: cell-based
# reportedConditions: mcf-10a
For each record, write down the corresponding Activity.
The figure you give is taken to be in %; do not add the unit.

Query: Activity; subject: O=C1/C(=C/c2ccc(F)cc2)CN(C(=O)C(=O)N2C/C(=C\c3ccc(F)cc3)C(=O)/C(=C/c3ccc(F)cc3)C2)C/C1=C\c1ccc(F)cc1
7.7

GET /values?readout=Activity&item= O=C1/C(=C/c2ccc(Cl)cc2)CN(C(=O)C(=O)N2C/C(=C\c3ccc(Cl)cc3)C(=O)/C(=C/c3ccc(Cl)cc3)C2)C/C1=C\c1ccc(Cl)cc1
2.2

Which Activity is listed for Cc1ccc(/C=C2\CN(C(=O)C(=O)N3C/C(=C\c4ccc(C)cc4)C(=O)/C(=C/c4ccc(C)cc4)C3)C/C(=C\c3ccc(C)cc3)C2=O)cc1 ?
9.3

Fill blank: measured Activity of the compound COc1cc(/C=C2\CN(C(=O)C(=O)N3C/C(=C\c4cc(OC)c(OC)c(OC)c4)C(=O)/C(=C/c4cc(OC)c(OC)c(OC)c4)C3)C/C(=C\c3cc(OC)c(OC)c(OC)c3)C2=O)cc(OC)c1OC is ____.
7.6

What value of Activity has been recorded for this entry: COc1ccc(/C=C2\CN(C(=O)C(=O)N3C/C(=C\c4ccc(OC)c(OC)c4)C(=O)/C(=C/c4ccc(OC)c(OC)c4)C3)C/C(=C\c3ccc(OC)c(OC)c3)C2=O)cc1OC
5.8
